# TARGET DESC: Phosphatidylinositol 4-kinase beta (Homo sapiens) (UniProt Q9UBF8);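 also: values given are mean percent inhibition of PI4K-beta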
# Sequence (Q9UBF8 2-816 limits assumed): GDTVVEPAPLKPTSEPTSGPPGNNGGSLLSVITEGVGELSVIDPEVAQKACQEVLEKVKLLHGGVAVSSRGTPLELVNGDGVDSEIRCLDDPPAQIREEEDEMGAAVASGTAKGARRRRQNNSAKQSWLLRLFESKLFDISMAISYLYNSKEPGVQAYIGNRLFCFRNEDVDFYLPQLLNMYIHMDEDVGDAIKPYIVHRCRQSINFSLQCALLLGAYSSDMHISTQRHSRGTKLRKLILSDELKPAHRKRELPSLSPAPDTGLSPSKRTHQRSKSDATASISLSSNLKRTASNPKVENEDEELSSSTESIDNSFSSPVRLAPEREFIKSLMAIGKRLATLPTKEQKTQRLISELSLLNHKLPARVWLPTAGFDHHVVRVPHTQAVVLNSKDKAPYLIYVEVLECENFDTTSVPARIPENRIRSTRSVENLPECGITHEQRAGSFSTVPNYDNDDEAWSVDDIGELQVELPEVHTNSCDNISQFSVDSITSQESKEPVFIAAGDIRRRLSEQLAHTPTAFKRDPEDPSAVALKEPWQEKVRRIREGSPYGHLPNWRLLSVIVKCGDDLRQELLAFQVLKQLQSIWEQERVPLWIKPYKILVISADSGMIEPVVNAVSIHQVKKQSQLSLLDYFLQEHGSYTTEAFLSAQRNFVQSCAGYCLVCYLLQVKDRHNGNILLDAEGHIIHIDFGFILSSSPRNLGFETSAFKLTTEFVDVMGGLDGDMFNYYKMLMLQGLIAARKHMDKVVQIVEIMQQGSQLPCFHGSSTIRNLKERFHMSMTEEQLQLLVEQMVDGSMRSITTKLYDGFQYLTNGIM
# CONDITION: at 0.1 µM
Reported inhibition is given for each of the following compounds.
Give the number; % is assumed, so skip it.

Cc1ccc(C(=O)NC2CCC2)cc1-c1ccc(C(=O)NCC2CC2)cc1: -3.28

// recorded inhibition for COc1cc(N2CCN(C(C)C)CC2)ccc1Nc1nc(Nc2ccc(F)cc2C(=O)NC[C@@H](O)CO)c2cc[nH]c2n1 : -3.83

// recorded inhibition for Fc1ccc(-c2ncn(CCCN3CCOCC3)c2-c2ccncc2)cc1 : -1.68

// recorded inhibition for COc1cc2ncn(-c3cc(OCc4cccs4)c(C(N)=O)s3)c2cc1OC : 4.6

---

Reported inhibition is given for each of the following molecules.
# TARGET DESC: Serine/threonine-protein kinase PLK1 (Homo sapiens) (UniProt P53350);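 also: reported value is a mean PLK1 inhibition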
# Sequence (P53350 whole entry): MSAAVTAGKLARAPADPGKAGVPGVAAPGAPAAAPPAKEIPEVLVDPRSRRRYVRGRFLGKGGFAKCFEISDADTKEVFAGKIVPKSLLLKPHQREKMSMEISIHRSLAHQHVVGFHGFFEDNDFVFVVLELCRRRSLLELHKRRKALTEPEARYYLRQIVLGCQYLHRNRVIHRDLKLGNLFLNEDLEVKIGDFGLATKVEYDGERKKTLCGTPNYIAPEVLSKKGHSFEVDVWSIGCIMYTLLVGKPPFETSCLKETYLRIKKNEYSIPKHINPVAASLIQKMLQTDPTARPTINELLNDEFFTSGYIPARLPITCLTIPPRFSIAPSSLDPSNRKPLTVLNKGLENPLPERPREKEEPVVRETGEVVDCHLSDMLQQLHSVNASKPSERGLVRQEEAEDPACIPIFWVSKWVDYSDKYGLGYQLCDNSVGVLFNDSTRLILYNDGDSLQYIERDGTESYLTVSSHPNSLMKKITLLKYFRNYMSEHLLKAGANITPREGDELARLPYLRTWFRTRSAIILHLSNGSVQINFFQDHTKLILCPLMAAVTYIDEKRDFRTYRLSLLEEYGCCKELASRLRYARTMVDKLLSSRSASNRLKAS
# CONDITION: at 1 µM
Give the number; % is assumed, so skip it.

Answered examples (6):
N#Cc1ccc(Oc2nccc(-c3c(-c4ccc(F)cc4)ncn3C3CCNCC3)n2)cc1: 4.75
COc1cc(Nc2ncc(-c3ccccc3)o2)cc(OC)c1OC: 2.1
Fc1ccc(-c2c(-c3ccncc3)nc3n2CCS3)cc1: 2.94
CCC(=O)Nc1ccc(C)c(-c2ccc(C(=O)NCC3CC3)cc2)c1: 4.61
CCc1ccc(Oc2nccc(-c3c(-c4ccc(F)cc4)ncn3C3CCNCC3)n2)cc1: 6.93
CS(=O)(=O)CCNCc1ccc(-c2ccc3ncnc(Nc4ccc(OCc5ccccc5)c(Br)c4)c3c2)o1: 3.81

inhibition of COc1ccc2cc(-c3c(-c4ccncc4)nc(-c4ccc([S+](C)[O-])cc4C)n3C)ccc2c1 (stereo not given) , assay on Serine/threonine-protein kinase PLK1 (Homo sapiens) (UniProt P53350), is -0.2

inhibition of CCc1cccc(CC)c1/C=C/c1cncc(C(=O)NC)c1 , assay on Serine/threonine-protein kinase PLK1 (Homo sapiens) (UniProt P53350), is 1.99

inhibition of c1ccc(-c2n[nH]cc2-c2ccnc(-c3ccc(OCCN4CCOCC4)cc3)c2)nc1 , assay on Serine/threonine-protein kinase PLK1 (Homo sapiens) (UniProt P53350), is -1.28

inhibition of COc1cc2ncn(-c3cc(OCc4ccccc4C(F)(F)F)c(C(C)=O)s3)c2cc1OC , assay on Serine/threonine-protein kinase PLK1 (Homo sapiens) (UniProt P53350), is 67.7

---

# TARGET DESC: Macrophage colony-stimulating factor 1 receptor (Homo sapiens);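 also: mean inhibition of FMS, from the GSK PKIS screening set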
# CONDITION: at 1 µM
Reported inhibition is given for each of the following compounds.
Give the number; % is assumed, so skip it.

Nc1nccc(-c2c(-c3ccc(F)cc3)ncn2C2CCC(O)CC2)n1 (configuration not stated): 14.7
O=C1NC(=O)C(c2cccc(Cl)c2)=C1Nc1ccc(Cl)c(C(=O)O)c1: 10.7
NC(=O)Cc1ccccc1Oc1nccc(-c2c(-c3ccc(F)cc3)ncn2C2CCNCC2)n1: 1.47
NC(=O)c1cc(-c2ccc(F)cc2)cc(-c2ccncc2)c1N: 15.4
CCc1nccc2c1nc(-c1nonc1N)n2CC: 1.95

// recorded inhibition for CCN(CC)Cc1ccc(Nc2nccc(-c3cnn4ncccc34)n2)cc1 : 68.9

// recorded inhibition for CCS(=O)(=O)c1ccc(OC)c(Nc2ncc(-c3cccc(-c4ccccc4F)c3)o2)c1 : 27.2

// recorded inhibition for COc1cc2ncn(-c3cc(OCc4cccs4)c(C(N)=O)s3)c2cc1OC : 11.7

// recorded inhibition for CN(c1ccc(NC(=O)Nc2c(Cl)cccc2Cl)cc1)c1ccnc(Nc2cccc(CS(C)(=O)=O)c2)n1 : 96.2

// recorded inhibition for COc1cccc(/C=N/Nc2ncnc3c2cnn3-c2cccc(OC)c2)c1 : 6.37

// recorded inhibition for NC(=O)c1cc(-c2ccncc2)cc(-c2ccccc2)c1N : 64.8

// recorded inhibition for NS(=O)(=O)c1ccc(N/N=C2\C(=O)Nc3ccc(C(=O)NCCCn4ccnc4)cc32)cc1 : 6.33
